Would you kindly list cell viability for each of these compounds?
# Test system: NOMO1
# Procedure text: cell viability relative to DMSO control; higher = less cytotoxic
# Measurement conditions: RPMI 5 mM glucose + 10% FBS; 48 h; 0.00234 µM
The figure you give is taken to be in %; do not add the unit.

Q: What does the data say about its cell viability? Entry: O=C(/C=C/c1c(C(=O)[O-])[nH]c2cc(Cl)cc(Cl)c12)Nc1ccccc1
A: 99

Q: What does the data say about its cell viability? Entry: O=C1\C=C/C[C@@H]2[C@H]3CCCN4CCC[C@@H](CN12)[C@@H]34
A: 94.3

Q: What does the data say about its cell viability? Entry: CC(=O)NC(CS)C(=O)O (stereo not given)
A: 81.1

Q: What does the data say about its cell viability? Entry: CCC[C@H](N[C@@H](C)C(=O)N1[C@H](C(=O)O)C[C@@H]2CCCC[C@@H]21)C(=O)OCC
A: 101

Q: What does the data say about its cell viability? Entry: CC1(C)OC2CC3C4CC(F)C/5=C/C(=O)/C=C\C5(C)C4C(O)CC3(C)[C@@]2(O1)C(=O)CO (stereo not given in full)
A: 108

###

# System: P12-Ichikawa
# Procedure text: cell viability relative to DMSO control; higher = less cytotoxic
# Measurement conditions: RPMI 5 mM glucose + 10% FBS; 48 h; 0.0632 µM
Would you kindly list cell viability for each of these compounds?
The figure you give is taken to be in %; do not add the unit.

Q: For P12-Ichikawa, provide cell viability of OC(=O)\C1=C\N(C2=CC=C(F)C=C2)C3=C(C=C(F)C(=C3)N4CCNCC4)C1=O please.
A: 117

Q: For P12-Ichikawa, provide cell viability of CC(=O)OCC(=O)[C@@]12\N=C(C)/O[C@@H]1C[C@H]3[C@@H]4CCC/5=C/C(=O)/C=C\[C@]5(C)[C@H]4[C@@H](O)C[C@]23C please.
A: 85.1

Q: For P12-Ichikawa, provide cell viability of O=C1Nc2ccc(Cl)cc2[C@@](C#CC2CC2)(C(F)(F)F)O1 please.
A: 85.5

Q: For P12-Ichikawa, provide cell viability of Cc1cc(Nc2nc(N[C@@H](C)c3ncc(F)cn3)ncc2Cl)n[nH]1 please.
A: 112

Q: For P12-Ichikawa, provide cell viability of O=C(O)c1ccc(-n2nc(-c3ccccc3O)nc2-c2ccccc2O)cc1 please.
A: 102

Q: For P12-Ichikawa, provide cell viability of Cc1cccc(-c2nn(C(=S)Nc3ccccc3)cc2-c2ccnc3ccccc23)n1 please.
A: 109

Q: For P12-Ichikawa, provide cell viability of CCOC(=O)[C@H](CCc1ccccc1)N[C@@H](C)C(=O)N1CCC[C@H]1C(=O)O please.
A: 113

Q: For P12-Ichikawa, provide cell viability of CC(C)[C@@H](C[S+](=O)([O-])C(C)C)N1C(=O)[C@@](C)(CC(=O)O)C[C@H](c2cccc(Cl)c2)[C@H]1c1ccc(Cl)cc1 please.
A: 120

###

# Test system: P12-Ichikawa
# Procedure text: cell viability relative to DMSO control; higher = less cytotoxic
# Measurement conditions: HPLM + 10% dialyzed FBS; 48 h; 0.00234 µM
Would you kindly list cell viability for each of these compounds?

Q: What does the data say about its cell viability? Entry: Cn1c(Nc2ccc(C(F)(F)F)cc2)nc2cc(Oc3ccnc(-c4nc(C(F)(F)F)c[nH]4)c3)ccc21
A: 112%

Q: What does the data say about its cell viability? Entry: CCN(CC)C(=S)SSC(=S)N(CC)CC
A: 106%

Q: What does the data say about its cell viability? Entry: CCCCCCCc1ccc(CCc2cccc(O)c2C(=O)O)cc1
A: 124%

Q: What does the data say about its cell viability? Entry: Cc1nccn1CC1CCc2c(c3ccccc3n2C)C1=O (stereo not given)
A: 125%

Q: What does the data say about its cell viability? Entry: O=C(/C=C/c1cccc([S+](=O)([O-])Nc2ccccc2)c1)NO
A: 115%

Q: What does the data say about its cell viability? Entry: OC[C@H](Cc1ccccc1)Nc1nc(Oc2ccc3c(c2)CCC3)nc2c1ncn2Cc1ccc(-c2ccccc2)cc1
A: 94.1%

Q: What does the data say about its cell viability? Entry: Cc1cccc(C#Cc2ccccc2)n1
A: 128%

Q: What does the data say about its cell viability? Entry: CC(C)C[C@H](NC(=O)[C@@H](NC(=O)c1cccc(-c2ccccc2)n1)[C@@H](C)O)B(O)O
A: 114%

Q: What does the data say about its cell viability? Entry: Cc1cccc(-c2nn(C(=S)Nc3ccccc3)cc2-c2ccnc3ccccc23)n1
A: 122%

Q: What does the data say about its cell viability? Entry: NC(=O)c1ncn([C@@H]2O[C@H](CO)[C@@H](O)[C@H]2O)n1
A: 120%

Q: What does the data say about its cell viability? Entry: CC(C)(C)c1cc(C=C(C#N)C#N)cc(Br)c1O
A: 116%

Q: What does the data say about its cell viability? Entry: Oc1ccc(/C=C/c2cc(O)cc(O)c2)cc1
A: 110%

Q: What does the data say about its cell viability? Entry: O=C1Nc2ccc(Cl)cc2[C@@](C#CC2CC2)(C(F)(F)F)O1
A: 91.9%

Q: What does the data say about its cell viability? Entry: O=C(/C=C/c1c(C(=O)[O-])[nH]c2cc(Cl)cc(Cl)c12)Nc1ccccc1
A: 111%

Q: What does the data say about its cell viability? Entry: Cc1c(Cn2c(C)nc3c(C(=O)O)cc(N4CCOCC4)cc32)cccc1C(F)(F)F
A: 109%

Q: What does the data say about its cell viability? Entry: N[S+](=O)([O-])c1cc(Cl)c(Cl)c([S+](N)(=O)[O-])c1
A: 108%

Q: What does the data say about its cell viability? Entry: CCOc1ccc(Nc2nc(-c3c(C)nc4ccccn34)cs2)cc1
A: 116%

Q: What does the data say about its cell viability? Entry: Clc1cc(Cl)cc(CNc2ncncc2-c2ccc3c(c2)OCO3)c1
A: 93.6%

Q: What does the data say about its cell viability? Entry: O=C(O)c1ccc(-n2nc(-c3ccccc3O)nc2-c2ccccc2O)cc1
A: 114%

Q: What does the data say about its cell viability? Entry: CCNC(=O)c1cc2c(-c3cc(OCCN4CCCC4)c(Cl)cc3Cl)nc(N)nc2s1
A: 103%
